tested.system: T1, alpha-s1 casein from Bos taurus
T1 chain: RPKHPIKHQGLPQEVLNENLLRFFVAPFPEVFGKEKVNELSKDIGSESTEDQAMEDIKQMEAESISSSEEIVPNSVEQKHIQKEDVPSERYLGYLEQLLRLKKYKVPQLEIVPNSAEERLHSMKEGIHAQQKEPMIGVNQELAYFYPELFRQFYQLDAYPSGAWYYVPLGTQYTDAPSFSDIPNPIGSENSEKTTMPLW
endpoint.label: small, 6 hours, 11° C.

small, 6 hours, 11° C. lookup needed for bovine chymosin B variant #7 (K221V) (protein) GEVASVPLTNYLDSQYFGKIYLGTPPQEFTVLFDTGSSDFWVPSIYCKSNACKNHQRFDPRKSSTFQNLGKPLSIHYGTGSMQGILGYDTVTVSNIVDIQQTVGLSTQEPGDVFTYAEFDGILGMAYPSLASEYSIPVFDNMMNRHLVAQDLFSVYMDRNGQESMLTLGAIDPSYYTGSLHWVPVTVQQYWQFTVDSVTISGVVVACEGGCQAILDTGTSVLVGPSSDILNIQQAIGATQNQYGEFDIDCDNLSYMPTVVFEINGKMYPLTPSAYTSQDQGFCTSGFQSENHSQKWILGDVFIREYYSVFDRANNLVGLAKAI , thanks.
0 Volume
